Please respond with reported IC50 for every item in the list.
Molecular target: Human Factor D (Homo sapiens (Human))
Sequence (P00746 26-253): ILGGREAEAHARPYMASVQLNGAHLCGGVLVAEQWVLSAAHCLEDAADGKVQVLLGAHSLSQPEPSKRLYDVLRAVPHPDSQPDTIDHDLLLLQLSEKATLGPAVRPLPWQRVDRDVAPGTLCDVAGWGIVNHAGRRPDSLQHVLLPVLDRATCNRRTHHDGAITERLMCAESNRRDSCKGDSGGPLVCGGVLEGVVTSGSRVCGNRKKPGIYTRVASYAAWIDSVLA
Test: Human Factor D assay
Assay type: biochemical
Details: Table 3; Factor D inhibition, substrate Z-L-Lys-SBzl

IN: Using the record for CO[C@@H]1CO[C@H]2[C@@H]1OC[C@H]2Oc1ncc(-c2ccc3c(c2)c(C(C)=O)cn3CC(=O)N2C[C@H](F)C[C@H]2C(=O)Nc2cccc(Br)n2)cn1 [Compound 508] , report its IC50.
OUT: < 1000 nM

IN: I would be grateful if you could share the reported IC50 for CC(=O)c1nn(CC(=O)N2C[C@H](F)C[C@H]2C(=O)NC2CCN(c3ccc(C(=O)O)cn3)CC2)c2ccc(-c3cnc(C)nc3)cc12 [Compound 512] .
OUT: 1000 to 10000 nM

IN: May I ask what IC50 has been recorded for CC(=O)c1nn(CC(=O)N2C[C@H](F)C[C@H]2C(=O)Nc2cccc(S(F)(F)(F)(F)F)c2)c2ccc(-c3cnc(C)nc3)cc12 [Compound 504] ?
OUT: < 1000 nM

IN: Sample CC(=O)c1nn(CC(=O)N2C[C@H](F)C[C@H]2C(=O)Nc2cccc(-c3cc(S(N)(=O)=O)ccc3Cl)c2F)c2ccc(-c3cnc(C)nc3)cc12 [Compound 525] — what was its IC50?
OUT: < 1000 nM

IN: Field request: IC50 | item: COC(=O)C[C@H]1CCCN1C(=O)Cn1nc(C(C)=O)c2cc(-c3cnc(C)nc3)ccc21 [Compound 509]
OUT: > 10000 nM

IN: What IC50 value was documented for this compound, CC(=O)c1cn(CC(=O)NC(CC(F)(F)F)C(=O)Nc2cccc(-c3ccccc3Cl)c2F)c2ccc(-c3cnc(C)nc3)cc12 (stereo not drawn) [Compound 507] ?
OUT: > 10000 nM

###

Task for the reader: assign each of the following molecules its reported IC50.
Target: UniProt:P00746
Test: Human Factor D assay
Format: biochemical
Conditions: Table 3; Factor D inhibition, substrate Z-L-Lys-SBzl

IN: Report IC50 for CC(=O)c1nn(CC(=O)N2C[C@H](F)C[C@H]2C(=O)Nc2cccc(-c3ccccc3Cl)c2F)c2ccc(N3CCn4c(nnc4C(F)(F)F)C3)cc12 please.
OUT: < 1000 nM

IN: Could you share which IC50 value was measured for CC(=O)c1nn(CC(=O)N2C[C@H](F)C[C@H]2C(=O)Nc2cccc(-c3ccc4c(c3)OC(F)(F)O4)c2F)c2ccc(-c3cnc(C)nc3)cc12 ?
OUT: < 1000 nM

IN: I am curious: what IC50 value has been reported for CC(=O)c1nn(CC(=O)N2C[C@H](F)C[C@H]2C(=O)N2CCn3c(nnc3C(F)(F)F)C2)c2ccc(-c3cnc(C)nc3)cc12 ?
OUT: > 10000 nM

IN: // returns reported IC50 for input CC(=O)Cc1nn(CC(=O)N2C[C@H](F)C[C@H]2C(=O)Nc2cccc(Br)n2)c2ccc(-c3cnc(C)nc3)cc12
OUT: < 1000 nM

###

Biological target: UniProt P00746
Assay: Human Factor D assay
Assay type: biochemical
Conditions: Table 4; Factor D inhibition, substrate Z-L-Lys-SBzl
Would you mind telling me the reported IC50 of each entry?

IN: Given the entry CC(=O)c1nn(CC(=O)N2CC=CC[C@H]2C(=O)Nc2cccc(C)n2)c2ccc(-c3cnc(C)nc3)cc12 , what IC50 was observed with UniProt P00746?
OUT: > 10 µM

IN: Quick check: IC50 on UniProt P00746, item CC(=O)c1nn(CC(=O)N2C[C@H](F)C[C@H]2C(=O)Nc2cccc(-c3ccc4scnc4c3)c2F)c2ccc(-c3cnc4cc(C)nn4c3)cc12 ?
OUT: < 1 µM

IN: Provide value of IC50 for this record tested with UniProt P00746: CCOP(=O)(OCC)OC[C@@]12C[C@@H](C(=O)Nc3cccc(Br)n3)N(C(=O)Cn3nc(C(C)=O)c4cc(-c5cnc(C)nc5)ccc43)[C@@H]1C2
OUT: < 1 µM

IN: # get_value(readout= IC50, system= UniProt P00746) for CC(=O)c1nn(CC(=O)N2C[C@H](F)C[C@H]2c2nnc(-c3cccc(Cl)c3F)[nH]2)c2ccc(-c3cnc(C)nc3)cc12
OUT: > 10 µM

IN: Please provide the recorded IC50 for Cc1cccc(NC(=O)[C@@H]2CCC(F)CCN2C(=O)Cn2cc(C(N)=O)c3cc(-c4cnn5c4CCC5)ccc32)n1 (some centres unmarked) , tested on UniProt P00746.
OUT: > 10 µM

IN: Kindly state the measured IC50 obtained for CC(=O)c1nn(CC(=O)NCc2ccccc2CC(=O)O)c2ccc(-c3cnc(C)nc3)cc12 with UniProt P00746.
OUT: > 10 µM

IN: Tell me reported IC50 for Cc1cccc(NC(=O)[C@@H]2CCC(F)CCN2C(=O)Cn2cc(C(N)=O)c3cc(-c4cnc5n4CCCC5)ccc32)n1 (some centres unmarked) , tested with UniProt P00746.
OUT: > 10 µM

IN: Checklist item: IC50 tested on UniProt P00746, entry COC(=O)Cc1ccccc1CNC(=O)Cn1nc(C(C)=O)c2cc(-c3cnc(C)nc3)ccc21 , value?
OUT: > 10 µM

###

Biological target: UniProt P00746
Assay: Human Factor D assay
Assay type: biochemical
Conditions: Table 4; Factor D inhibition, substrate Z-L-Lys-SBzl
measured_property: IC50

IN: Query: IC50; subject: CC[C@H](NC(=O)Cn1nc(C(C)=O)c2cc(-c3cnc(C)nc3)ccc21)C(=O)Nc1cccc(Br)n1
OUT: < 1 µM

IN: Entry CC(=O)c1nn(CC(=O)N2C[C@H](F)C[C@H]2C(=O)Nc2cccc(Br)n2)c2ccc(N3C[C@H]4CCCC[C@H]4C3)cc12 has what IC50?
OUT: < 1 µM

IN: Given the compound CC(=O)c1nn(CC(=O)N2C[C@H](F)C[C@H]2C(=O)OCc2ccc(Br)nc2N)c2ccc(-c3cnc(C)nc3)cc12 , what is its reported IC50?
OUT: > 10 µM

###

Provide the recorded pIC50 for the entries that follow.
Target: UniProt:P00746
Assay: Human Factor D assay
Assay type: biochemical
Conditions: Table 3; Factor D inhibition, substrate Z-L-Lys-SBzl
pIC50: −log10 of the molar value.

IN: Tell me reported pIC50 for CC(=O)c1cn(CC(=O)N[C@H](C(=O)Nc2cccc(-c3ccccc3Cl)c2F)[C@@H](C)O)c2ccc(-c3cnc(C)nc3)cc12 , tested with UniProt:P00746.
OUT: > 6.00

IN: API: value(readout=pIC50, system=UniProt:P00746) for record CC(=O)c1nn(CC(=O)N2C[C@H](F)C[C@H]2C(=O)SCc2cccc(Cl)c2F)c2ccc(-c3cnc(C)nc3)cc12
OUT: 5.00 to 6.00

IN: Test system UniProt:P00746; read-out pIC50; what value for CC(=O)c1nn(CC(=O)N2C[C@H](F)C[C@H]2C(=O)OCc2cccc(Cl)c2F)c2ccc(-c3cnc(C)nc3)cc12 ?
OUT: 5.00 to 6.00

IN: Can you look up pIC50 on UniProt:P00746 for CNS(=O)(=O)c1ccc(Cl)c(-c2cccc(NC(=O)[C@@H]3C[C@@H](F)CN3C(=O)Cn3nc(C(C)=O)c4cc(-c5cnc(C)nc5)ccc43)c2F)c1 ?
OUT: > 6.00

IN: Param readout= pIC50; system= UniProt:P00746; entry= CC(=O)c1cn(CC(=O)N(C)[C@H](C(=O)Nc2cccc(-c3ccccc3Cl)c2F)[C@@H](C)O)c2ccc(-c3cnc(C)nc3)cc12 ; returns value.
OUT: 5.00 to 6.00

IN: Please provide the recorded pIC50 for Cc1ncc(-c2ccc3c(c2)c(C(N)=S)nn3CC(=O)N2C[C@H](F)C[C@H]2C(=O)Nc2cccc(Br)n2)cn1 , tested on UniProt:P00746.
OUT: > 6.00
